Study system: GRID2IP_2, A4D2P6
Sequence (A4D2P6 272-370): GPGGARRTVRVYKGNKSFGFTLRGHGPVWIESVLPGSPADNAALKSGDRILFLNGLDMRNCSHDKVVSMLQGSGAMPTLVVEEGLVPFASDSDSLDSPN
Assay remarks: holdup assay
Parameters: key: below the threshold = too weak to quantify, mostly under pKd 3.1 to 4
Test parameters: plain residues with an end cap or a label only (N-terminal biotin on a linker: ado-ado)

[
  {
    "Binder": "SKSNFGSEPL [KIF17, Q9P2E2]",
    "pKd": "below the threshold"
  },
  {
    "Binder": "IKAIVDLTGL [TRAF2, Q12933]",
    "pKd": "below the threshold"
  },
  {
    "Binder": "LSEFKAMDSI [CTNNA1, P35221]",
    "pKd": "below the threshold"
  },
  {
    "Binder": "YYKRPVQEWV [MMP24, Q9Y5R2]",
    "pKd": 3.89
  }
]

Origin of measurements: paper PMC9482650
